Tested on: UACC-257 melanoma
Test summary: NCI-60 one-dose screen, 48 h
Reported conditions: 10 µM unless noted
The panel holds about 83,000 compounds, 20% with a hit somewhere; the sample as a whole holds those more often. Activity calls are given as the source filed them. Rule for the calls: active = growth percent below 10; inactive = the rest.
Outcomes: active, inactive

# Structure smiles, System tested, Label value
data = [
    ("Cc1c(C(=O)/C=C/c2ccc(Cl)cc2)nnn1-c1ccc2oc(=O)ccc2c1", "UACC-257 melanoma", "inactive"),
    ("Cn1ncc2c(C(=O)c3ccc(F)cc3)nc(C(C)(C)C)nc21", "UACC-257 melanoma", "inactive"),
    ("CC(=O)Nc1nc(C)c(-c2csc(Nc3ccccc3)n2)s1", "UACC-257 melanoma", "inactive"),
    ("O=C(CCCCCC/C=C\\c1csc(Br)n1)NO", "UACC-257 melanoma", "inactive"),
    ("Cn1cc(-c2nn3cc(-c4ccncc4)nc3s2)c2cc(F)ccc21", "UACC-257 melanoma", "inactive"),
    ("COc1ccc2[nH]cc(/C=N/Nc3ccnc4cc(Cl)ccc34)c2c1", "UACC-257 melanoma", "active"),
]
